Tested on: RAW-Dual
test_description: NF-kB SEAP reporter activity, fold change vs agonist alone; cytotoxicity flag (confluency mask): cytotoxic (confluency <70% of control); higher = enhanced NF-kB activity
experimental_parameters: agonist: Pam2CSK4 (TLR2/6) 0.1 ug/mL
The full ranking holds about 2,900 compounds; the median of “NF-kB SEAP reporter activity, fold change vs agonist alone” is about 0.99, and the highest 2% start at about 2.6. The full list was thinned out, with the highest values kept by preference.
Reported NF-kB SEAP reporter activity values for the following compounds.
API note: the answer field is a bare number with no unit suffix.

Completed entries (count: 6):
[ask] Identify the measured NF-kB SEAP reporter activity of CCC1(O)C(=O)OCc2c1cc1n(c2=O)Cc2cc3c(CN(C)C)c(O)ccc3nc2-1.Cl (stereo unspecified) (library stock concentration (final ~1000-fold dilution): 10 mM) for RAW-Dual.
[reply] 0.868

[ask] Field entry: CN1CCc2cc(Nc3ncc(C4CC4)c(NCCCNC(=O)C4CCC4)n3)ccc2C1 (library stock concentration (final ~1000-fold dilution): 10 mM)
[reply] 0.0969

[ask] Field entry: O=C(Nc1ccc([N+](=O)[O-])cc1O)Nc1ccccc1Br (library stock concentration (final ~1000-fold dilution): 10 mM)
[reply] 0.989

[ask] Field entry: CN(C)c1ccc(C(=O)NCCCCCCC(=O)NO)cc1 (library stock concentration (final ~1000-fold dilution): 10 mM)
[reply] 1.17

[ask] Field entry: CCc1ccc(OCc2ccccc2C(=O)Nc2ccc3nc(C)cc(N)c3c2)cc1.Cl (library stock concentration (final ~1000-fold dilution): 10 mM)
[reply] 0.0939

[ask] Field entry: Cc1ccc(NC(=O)c2ccc(CN3CCC(N(C)C)C3)c(C(F)(F)F)c2)cc1Nc1nccc(-c2cncnc2)n1 (stereo unspecified) (library stock concentration (final ~1000-fold dilution): 10 mM)
[reply] 1.4

Next:
[ask] Identify the measured NF-kB SEAP reporter activity of O=C(CCCCCCNC(=O)c1cnc(N(c2ccccc2)c2ccccc2)nc1)NO (library stock concentration (final ~1000-fold dilution): 10 mM) for RAW-Dual.
[reply] 0.825

[ask] Field entry: O=C(CCCCCCC(=O)N/N=C/c1ccc(N(c2ccccc2)c2ccccc2)cc1)NO (library stock concentration (final ~1000-fold dilution): 10 mM)
[reply] 1.09

====

Tested on: RAW-Dual
test_description: NF-kB SEAP reporter activity, fold change vs agonist alone; higher = enhanced NF-kB activity
experimental_parameters: library stock concentration (final ~1000-fold dilution): 10 mM water; cytotoxicity flag (confluency mask): not cytotoxic; agonist: Imiquimod (TLR7) […]
In all, about 2,900 compounds were measured (“NF-kB SEAP reporter activity, fold change vs agonist alone”: median about 0.99, highest 2% from about 2.6 on). The sample as a whole holds a higher share of the highest values than the screen did.
result_type: NF-kB SEAP reporter activity
API note: the answer field is a bare number with no unit suffix.

Completed entries (count: 2):
[ask] Query: NF-kB SEAP reporter activity; subject: CCOc1ccc(CC2NC(=O)CCSSCC(C(=O)N3CCCC3C(=O)NC(CCCN)C(=O)NCC(N)=O)NC(=O)C(CC(N)=O)NC(=O)C(C(C)O)NC(=O)C(C(C)CC)NC2=O)cc1 (configuration not stated)
[reply] 0.981

[ask] Field entry: CN1CCN(CC(=O)N2c3ccccc3C(=O)Nc3cccnc32)CC1.Cl.Cl
[reply] 0.949

Next:
[ask] Query: NF-kB SEAP reporter activity; subject: CC(=O)c1c(C)c2cnc(Nc3ccc(N4CCNCC4)cn3)nc2n(C2CCCC2)c1=O.O=S(=O)(O)CCO
[reply] 0.674

[ask] Field entry: CC(C)Cc1ccc(C(C)C(=O)O)cc1.NCCCCC(N)C(=O)O (configuration not stated)
[reply] 0.969

[ask] Field entry: Cl.N=C(N)NC(=O)c1nc(Cl)c(N)nc1N.O.O
[reply] 0.827

[ask] Field entry: CCCCCOc1ccc(-c2cc(-c3ccc(C(=O)NC4CC(O)C(O)NC(=O)C5C(O)C(C)CN5C(=O)C(C(O)CC(N)=O)NC(=O)C(C(O)C(O)c5ccc(O)c(OS(=O)(=O)O)c5)NC(=O)C5CC(O)CN5C(=O)C(C(C)O)NC4=O)cc3)no2)cc1 (configuration not stated)
[reply] 0.949

[ask] Field entry: CCC(C)CC(C)CCCCCCCCC(=O)NC1CC(O)C(NCCN)NC(=O)C2C(O)CCN2C(=O)C(C(O)CCN)NC(=O)C(C(O)C(O)c2ccc(O)cc2)NC(=O)C2CC(O)CN2C(=O)C(C(C)O)NC1=O (configuration not stated)
[reply] 0.901

[ask] Field entry: C=C1c2cccc(O)c2C(=O)C2=C(O)C3(O)C(=O)C(C(N)=O)=C(O)C(N(C)C)C3C(O)C12.Cl (configuration not stated)
[reply] 0.915

[ask] Field entry: CC(C)(C)N.CCCC(NC(C)C(=O)N1C(C(=O)O)CC2CCCCC21)C(=O)OCC (configuration not stated)
[reply] 0.909

[ask] Field entry: CC(C)(C)Cn1c(N)nc2ccc(-c3[nH]c(C(C)(C)C)nc3-c3ccc(F)cc3)nc21.CS(=O)(=O)O.CS(=O)(=O)O
[reply] 0.303

[ask] Field entry: CCOC(=O)CC(=O)O
[reply] 0.955

[ask] Field entry: NC(CSCCCO)C(=O)O (configuration not stated)
[reply] 0.937

[ask] Field entry: CCN(CCO)CCCC(C)Nc1ccnc2cc(Cl)ccc12.O=S(=O)(O)O (configuration not stated)
[reply] 0.389

[ask] Field entry: CNC1C(O)C(OC2C(NC(=O)C(O)CN)CC(N)C(OC3OC(CN)C(O)C(O)C3O)C2O)OCC1(C)O.O=S(=O)(O)O (configuration not stated)
[reply] 0.944

[ask] Field entry: Nc1ccn(CC(CO)OCP(=O)(O)O)c(=O)n1 (configuration not stated)
[reply] 0.956

[ask] Field entry: CC(=O)N1CCCC1C(=O)NC(Cc1c[nH]cn1)C(=O)NC(CO)C(=O)NC(CS)C(=O)NC(CC(N)=O)C(N)=O (configuration not stated)
[reply] 0.979

[ask] Field entry: O=C(O)CC[C@@H](O)C(=O)O
[reply] 0.93

====

System: RAW-Dual
test_description: NF-kB SEAP reporter activity, fold change vs agonist alone; cytotoxicity flag (confluency mask): not cytotoxic; higher = enhanced NF-kB activity
experimental_parameters: agonist: ODN 1826 (TLR9) 0.5 ug/mL
The full ranking holds about 2,900 compounds; the median of “NF-kB SEAP reporter activity, fold change vs agonist alone” is about 0.99, and the highest 2% start at about 2.6. The sample holds the highest values, similar compounds and a random draw of the others, so the mix is not that of the screen.
Reported NF-kB SEAP reporter activity values for the following compounds.
API note: the answer field is a bare number with no unit suffix.

Completed entries (count: 5):
[ask] Query: NF-kB SEAP reporter activity; subject: CC1COC2Cn3cc(C(=O)NCc4ccc(F)cc4F)c(=O)c(O)c3C(=O)N12 (stereo unspecified) (library stock concentration (final ~1000-fold dilution): 10 mM)
[reply] 1.03

[ask] Field entry: Nc1cccc2c1C(=O)N(C1CCC(=O)NC1=O)C2=O (stereo unspecified) (library stock concentration (final ~1000-fold dilution): 10 mM)
[reply] 1.17

[ask] Field entry: COc1cc2c(cc1OC)C(=O)C(CC1CCN(Cc3ccccc3)CC1)C2.Cl (stereo unspecified) (library stock concentration (final ~1000-fold dilution): 10 mM water)
[reply] 1.16

[ask] Field entry: COc1ccc(CNCc2cccc3ccccc23)cc1.Cl (library stock concentration (final ~1000-fold dilution): 10 mM)
[reply] 0.82

[ask] Field entry: CC(=O)Nc1ccc(C(=O)Nc2ccccc2N)cc1 (library stock concentration (final ~1000-fold dilution): 10 mM)
[reply] 2.86

Please look at the following compound next.
[ask] Query: NF-kB SEAP reporter activity; subject: Nc1ccccc1NC(=O)c1cnccn1 (library stock concentration (final ~1000-fold dilution): 10 mM)
[reply] 1.16

====

System: RAW-Dual
test_description: NF-kB SEAP reporter activity, fold change vs agonist alone; higher = enhanced NF-kB activity
experimental_parameters: library stock concentration (final ~1000-fold dilution): 10 mM; cytotoxicity flag (confluency mask): not cytotoxic; agonist: Imiquimod (TLR7) […]
Whole data set: some 2,900 compounds, median “NF-kB SEAP reporter activity, fold change vs agonist alone” near 0.99, cut for the highest 2% near 2.6. The full list was thinned out, with the highest values kept by preference.
result_type: NF-kB SEAP reporter activity
API note: the answer field is a bare number with no unit suffix.

Completed entries (count: 8):
[ask] Query: NF-kB SEAP reporter activity; subject: COc1ccccc1Oc1c(NS(=O)(=O)c2ccc(C(C)(C)C)cc2)nc(-c2ncccn2)nc1OCCO.O
[reply] 1.02

[ask] Field entry: COC(=O)C(CCSC)NC(=O)c1ccc(NCC(N)CS)cc1-c1ccccc1.Cl (centres undefined)
[reply] 1.13

[ask] Field entry: CN1C(=N)NC(C)(c2cc(NC(=O)c3ccc(F)cn3)ccc2F)CS1(=O)=O.O=C(O)C(F)(F)F (centres undefined)
[reply] 0.873

[ask] Field entry: O=C(C=Cn1cnc(-c2cc(C(F)(F)F)cc(C(F)(F)F)c2)n1)NNc1cnccn1
[reply] 1.41

[ask] Field entry: CNCCN(C)Cc1c[nH]nc1-c1ccc(OC2CC(OCCC3CCOCC3)C2)cc1.Cl.Cl (centres undefined)
[reply] 0.935

[ask] Field entry: O=C1c2c(O)cc(O)cc2OC(c2cc(O)c(O)c(O)c2)C1O (centres undefined)
[reply] 0.946

[ask] Field entry: Cn1ncc(Cl)c1-c1cc(C(=O)NC(CN)Cc2cccc(F)c2)sc1Cl (centres undefined)
[reply] 1.39

[ask] Field entry: CN1C(CC(=O)c2ccccc2)CCCC1CC(O)c1ccccc1.Cl (centres undefined)
[reply] 0.779

Please look at the following compound next.
[ask] Query: NF-kB SEAP reporter activity; subject: Cc1c[nH]c(-c2cnc(NCCNc3ccc(C#N)cn3)nc2-c2ccc(Cl)cc2Cl)n1.Cl
[reply] 2.27

// provenance: the supplement of paper PMC10037445
